Just for reference, ChEMBL document CHEMBL3286280 is where these values come from.

molecular target: Sphingosine kinase 2 (Homo sapiens, UniProt Q9NRA0); experiment: Competitive inhibition of V5-His-tagged human SphK2 expressed in HEK293 cells assessed as S1P production using sphingosine and [gamma-32P]ATP as substrate by thin layer chromatography
Sequence (Q9NRA0 whole entry): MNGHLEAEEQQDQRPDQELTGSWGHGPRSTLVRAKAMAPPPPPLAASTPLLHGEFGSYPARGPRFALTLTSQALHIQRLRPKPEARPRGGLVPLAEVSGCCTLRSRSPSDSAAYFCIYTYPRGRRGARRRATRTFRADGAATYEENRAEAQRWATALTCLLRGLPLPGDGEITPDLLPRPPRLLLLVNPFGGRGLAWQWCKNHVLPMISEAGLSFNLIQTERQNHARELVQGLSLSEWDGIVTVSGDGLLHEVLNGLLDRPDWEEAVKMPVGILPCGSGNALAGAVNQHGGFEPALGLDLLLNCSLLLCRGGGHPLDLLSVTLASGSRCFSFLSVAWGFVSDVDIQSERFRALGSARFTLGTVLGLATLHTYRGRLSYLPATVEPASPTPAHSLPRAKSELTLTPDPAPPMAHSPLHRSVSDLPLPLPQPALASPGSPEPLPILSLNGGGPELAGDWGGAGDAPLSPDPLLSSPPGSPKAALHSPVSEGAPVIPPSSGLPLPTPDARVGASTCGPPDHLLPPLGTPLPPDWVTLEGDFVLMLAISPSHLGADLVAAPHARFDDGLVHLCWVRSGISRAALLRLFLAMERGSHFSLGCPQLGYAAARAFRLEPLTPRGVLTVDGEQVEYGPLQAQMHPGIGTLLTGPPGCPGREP
assay-readout: IC50 (µM)

CCCCCc1ccc(/C=C/[C@H](O)[C@@H](CO)NC)cc1; 10

====

target: Sphingosine kinase 2 (Homo sapiens, UniProt Q9NRA0); assay: Inhibition of SphK2 (unknown origin)
pKi: −log10 of the molar value.
assay-readout: pKi

CCCCCCCCCCCCC/C=C/[C@@H](O)[C@H](CO)N(C)C; 4.92
CCCCCCCCc1ccc(CC[C@@](N)(CO)COC)cc1; 4.57

====

target: Sphingosine kinase 2 (Homo sapiens); experiment: Inhibition of SphK2 (unknown origin) using sphingosine and [gamma-32P]ATP as substrate
assay-readout: Ki

CCCCOc1ccc(CC/C=C2\SC(=O)N(CCN)C2=O)cc1; 4.3 µM
